From: ChEMBL document CHEMBL3885861

- Species on record: Rattus norvegicus
- Measurement Description: Open TG-GATES - Regimen: Daily Repeat
- Type: toxicity, organism-based, Sprague-Dawley
- Parameters: regimen Daily Repeat, gender Male, age 6 weeks
- Details: in vivo, po, 300 mg/kg, […], tissue Kidney, route gavage, dose level Middle, time 28 day
Measured KIDNEY_L, listed per entry.
Respond numerically; units are g and should not be typed.

Illustrative cases are given below, each with its answer.
Cc1nnc2n1-c1ccc(Cl)cc1C(c1ccccc1Cl)=NC2 [TRIAZOLAM]    1.4
CCOc1ccc(NC(C)=O)cc1 [PHENACETIN]    1.4
CNC(=C[N+](=O)[O-])NCCSCc1ccc(CN(C)C)o1 [RANITIDINE]    1.4
COC(=O)C1=C(C)NC(C)=C(C(=O)OC)C1c1ccccc1[N+](=O)[O-] [NIFEDIPINE]    1.3
CN/C(=N/CCSCc1nc[nH]c1C)NC#N [CIMETIDINE]    1.4

Lab note: next compound to report on.
*Q* I have this compound here, O=C(OC[C@H]1O[C@@H](OC(=O)c2cc(O)c(O)c(OC(=O)c3cc(O)c(O)c(O)c3)c2)[C@H](OC(=O)c2cc(O)c(O)c(OC(=O)c3cc(O)c(O)c(O)c3)c2)[C@@H](OC(=O)c2cc(O)c(O)c(OC(=O)c3cc(O)c(O)c(O)c3)c2)[C@@H]1OC(=O)c1cc(O)c(O)c(OC(=O)c2cc(O)c(O)c(O)c2)c1)c1cc(O)c(O)c(OC(=O)c2cc(O)c(O)c(O)c2)c1 [TANNIC ACID] , and I need its recorded KIDNEY_L.
*A* 1.4

====

- Species on record: Rattus norvegicus
- Measurement Description: Open TG-GATES - Regimen: Daily Repeat
- Assay type: toxicity, organism-based, Sprague-Dawley
- Set-up: regimen Daily Repeat, gender Male, age 6 weeks
- Details: in vivo, po, 1000 mg/kg, […], tissue Plasma, route gavage, dose level High, time 14 day
Measured TBIL values are reported for all entries that follow.
Remember to put the unit after the number in your answer.

Cc1nnc2n1-c1ccc(Cl)cc1C(c1ccccc1Cl)=NC2 [TRIAZOLAM]    0.036 mg/dL

Here is the next item to consider.
*Q* Given the entry O=C(OC[C@H]1O[C@@H](OC(=O)c2cc(O)c(O)c(OC(=O)c3cc(O)c(O)c(O)c3)c2)[C@H](OC(=O)c2cc(O)c(O)c(OC(=O)c3cc(O)c(O)c(O)c3)c2)[C@@H](OC(=O)c2cc(O)c(O)c(OC(=O)c3cc(O)c(O)c(O)c3)c2)[C@@H]1OC(=O)c1cc(O)c(O)c(OC(=O)c2cc(O)c(O)c(O)c2)c1)c1cc(O)c(O)c(OC(=O)c2cc(O)c(O)c(O)c2)c1 [TANNIC ACID] , report its measured TBIL.
*A* 0.4 mg/dL

====

- Species on record: Rattus norvegicus
- Measurement Description: Open TG-GATES - Regimen: Single
- Format: toxicity, organism-based, Sprague-Dawley
- Parameters: regimen Single, gender Male, age 6 weeks
- Details: in vivo, po, 1000 mg/kg, 9 h, tissue Plasma, route gavage, dose level High
Measurement Kind: LDH (IU/L)
Enter your answer as a number in IU/L; do not include the unit.

Solved entries (count: 4):
COC(=O)C1=C(C)NC(C)=C(C(=O)OC)C1c1ccccc1[N+](=O)[O-] [NIFEDIPINE]    85
CN/C(=N/CCSCc1nc[nH]c1C)NC#N [CIMETIDINE]    157
O=C(OC[C@H]1O[C@@H](OC(=O)c2cc(O)c(O)c(OC(=O)c3cc(O)c(O)c(O)c3)c2)[C@H](OC(=O)c2cc(O)c(O)c(OC(=O)c3cc(O)c(O)c(O)c3)c2)[C@@H](OC(=O)c2cc(O)c(O)c(OC(=O)c3cc(O)c(O)c(O)c3)c2)[C@@H]1OC(=O)c1cc(O)c(O)c(OC(=O)c2cc(O)c(O)c(O)c2)c1)c1cc(O)c(O)c(OC(=O)c2cc(O)c(O)c(O)c2)c1 [TANNIC ACID]    69
CNC(=C[N+](=O)[O-])NCCSCc1ccc(CN(C)C)o1 [RANITIDINE]    126

*Q* What value of measured LDH is listed for Cc1nnc2n1-c1ccc(Cl)cc1C(c1ccccc1Cl)=NC2 [TRIAZOLAM] ?
*A* 84.2

====

- Species: Rattus norvegicus
- Measurement Description: Open TG-GATES - Regimen: Daily Repeat
- Type: toxicity, organism-based, Sprague-Dawley
- Set-up: regimen Daily Repeat, gender Male, age 6 weeks
- Details: in vivo, po, 1000 mg/kg, […], tissue Plasma, route gavage, dose level High, time 14 day
Measurement Kind: Cl (meq/L)
Number only, in meq/L; omit the unit.

CNC(=C[N+](=O)[O-])NCCSCc1ccc(CN(C)C)o1    103
O=C(OC[C@H]1O[C@@H](OC(=O)c2cc(O)c(O)c(OC(=O)c3cc(O)c(O)c(O)c3)c2)[C@H](OC(=O)c2cc(O)c(O)c(OC(=O)c3cc(O)c(O)c(O)c3)c2)[C@@H](OC(=O)c2cc(O)c(O)c(OC(=O)c3cc(O)c(O)c(O)c3)c2)[C@@H]1OC(=O)c1cc(O)c(O)c(OC(=O)c2cc(O)c(O)c(O)c2)c1)c1cc(O)c(O)c(OC(=O)c2cc(O)c(O)c(O)c2)c1    104.6
COC(=O)C1=C(C)NC(C)=C(C(=O)OC)C1c1ccccc1[N+](=O)[O-]    104.2
CN/C(=N/CCSCc1nc[nH]c1C)NC#N    101.8

*Q* Look up Cl: CCOc1ccc(NC(C)=O)cc1
*A* 103.8

*Q* Similarly, Cc1nnc2n1-c1ccc(Cl)cc1C(c1ccccc1Cl)=NC2 ?
*A* 103.6

====

- Organism: Rattus norvegicus
- Measurement Description: Open TG-GATES - Regimen: Single
- Format: toxicity, organism-based, Sprague-Dawley
- Design: regimen Single, gender Male, age 6 weeks
- Details: in vivo, po, 0 mg/kg, 9 h, tissue Blood, route gavage, dose level Control
// reported Ret for each item listed
Form entry: value (%) — number only.

As a guide, the following entries are already answered.
CN/C(=N/CCSCc1nc[nH]c1C)NC#N    7.6
NC1=NC(=O)C(c2ccccc2)O1 (centres undefined)    9.5
CN1C(=O)CCS(=O)(=O)C1c1ccc(Cl)cc1 (centres undefined)    7.5
CN(C)CCC(c1ccc(Cl)cc1)c1ccccn1 (centres undefined)    9.5
Nc1c2c(nc3ccccc13)CCCC2    8.6

Now look at this one.
*Q* I have this molecule here, CS(=O)(=O)O.Cc1ccc(NC(=O)c2ccc(CN3CCN(C)CC3)cc2)cc1Nc1nccc(-c2cccnc2)n1 [IMATINIB MESYLATE] , and I need its recorded Ret.
*A* 9

====

- Organism: Rattus norvegicus
- Measurement Description: Open TG-GATES - Regimen: Daily Repeat
- Format: toxicity, organism-based, Sprague-Dawley
- Set-up: regimen Daily Repeat, gender Male, age 6 weeks
- Details: in vivo, po, 1000 mg/kg, 72 h, tissue Plasma, route gavage, dose level High, time 3 day
Rule: ALP under 1000 IU/L gives not met, otherwise met.

Answered cases to consult:
COC(=O)C1=C(C)NC(C)=C(C(=O)OC)C1c1ccccc1[N+](=O)[O-]    met
CNC(=C[N+](=O)[O-])NCCSCc1ccc(CN(C)C)o1    not met
CCOc1ccc(NC(C)=O)cc1    met
Cc1nnc2n1-c1ccc(Cl)cc1C(c1ccccc1Cl)=NC2    met

Now let's try a different one.
*Q* I'd appreciate it if you could say whether O=C(OC[C@H]1O[C@@H](OC(=O)c2cc(O)c(O)c(OC(=O)c3cc(O)c(O)c(O)c3)c2)[C@H](OC(=O)c2cc(O)c(O)c(OC(=O)c3cc(O)c(O)c(O)c3)c2)[C@@H](OC(=O)c2cc(O)c(O)c(OC(=O)c3cc(O)c(O)c(O)c3)c2)[C@@H]1OC(=O)c1cc(O)c(O)c(OC(=O)c2cc(O)c(O)c(O)c2)c1)c1cc(O)c(O)c(OC(=O)c2cc(O)c(O)c(O)c2)c1 has ALP at least equal to 1000 IU/L.
*A* not met

====

Item-by-item account of CRE
- Organism: Rattus norvegicus
- Measurement Description: Open TG-GATES - Regimen: Single
- Assay type: toxicity, organism-based, Sprague-Dawley
- Parameters: regimen Single, gender Male, age 6 weeks
- Details: in vivo, po, 100 mg/kg, 6 h, tissue Plasma, route gavage, dose level Low
Quick note: give the figure in mg/dL, leave out the unit.

# annotated cases, reported CRE shown
O=C(OC[C@H]1O[C@@H](OC(=O)c2cc(O)c(O)c(OC(=O)c3cc(O)c(O)c(O)c3)c2)[C@H](OC(=O)c2cc(O)c(O)c(OC(=O)c3cc(O)c(O)c(O)c3)c2)[C@@H](OC(=O)c2cc(O)c(O)c(OC(=O)c3cc(O)c(O)c(O)c3)c2)[C@@H]1OC(=O)c1cc(O)c(O)c(OC(=O)c2cc(O)c(O)c(O)c2)c1)c1cc(O)c(O)c(OC(=O)c2cc(O)c(O)c(O)c2)c1    0.5
COC(=O)C1=C(C)NC(C)=C(C(=O)OC)C1c1ccccc1[N+](=O)[O-]    0.2
Cc1nnc2n1-c1ccc(Cl)cc1C(c1ccccc1Cl)=NC2    0.1
CN/C(=N/CCSCc1nc[nH]c1C)NC#N    0.4

*Q* What value of measured CRE is listed for CNC(=C[N+](=O)[O-])NCCSCc1ccc(CN(C)C)o1 ?
*A* 0.4
